Known recombinant barcode read abundance (log10) of a selection of sequences
procedureSummary: recombinant barcode read abundance after kanamycin selection (control-corrected) (log10(CPM+1)); higher = more efficient recombination; sequences stand for … in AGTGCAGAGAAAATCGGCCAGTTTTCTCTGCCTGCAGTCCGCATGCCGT…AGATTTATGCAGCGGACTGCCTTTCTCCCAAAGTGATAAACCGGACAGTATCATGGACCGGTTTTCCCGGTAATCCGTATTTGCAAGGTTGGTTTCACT; site = the 11-nt target
Lab note: write the figure by itself, no unit.

Before answering, review these 4 worked examples.
| seq | observed |
| --- | --- |
| TCCGCTACTTGGGTTCTAACCTGTTGCCT (site TCCGCTTCTAG) | 0.107 |
| TTCAAGCCTTGGGTTCTAACCTGTTGCCT (site TTCAAGCCTAG) | 0.329 |
| CGTCAACCTTGGGTTCTAACCTGTTGCCT (site CGTCAACCTAG) | 0.0446 |
| TCGAACCCTTGGGTTCTAACCTGTTGCGG (site TCCAACCCTCC) | 0.168 |

Attention now shifts to the item below.
Entry under review: TTCTGTCCTTGGGTTCTAACCTGTTGCCT (site TTCTCTCCTAG) . Reported recombinant barcode read abundance (log10)?
0.0821

----------
procedureSummary: recombinant UMI read abundance after kanamycin selection (control-corrected) (log10(CPM+1)); higher = more efficient recombination; extreme values may be limits of the assay; sequences stand for … in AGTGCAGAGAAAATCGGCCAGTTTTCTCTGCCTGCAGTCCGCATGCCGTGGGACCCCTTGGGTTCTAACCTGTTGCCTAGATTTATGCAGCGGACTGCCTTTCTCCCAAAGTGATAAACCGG…AGGTTGGTTTCACT; site = the 11-nt donor
measurementLabel: recombinant UMI read abundance (log10)
Please respond with just the number, no unit label.

Some sequences with recorded recombinant UMI read abundance (log10):
| seq | observed |
| --- | --- |
| ATTACTTCATGGACCGGTTTTCCCGGTAATCCGTATTTGGG (site ATTACTTCTCC) | 0.434 |
| GGAGTGGCATGGACCGGTTTTCCCGGTAATCCGTATTTGGA (site GGAGTGGCTTC) | 0.645 |
| AGGCAGGCATGGACCGGTTTTCCCGGTAATCCGTATTTGCA (site AGGAAGACTTG) | 0 |

# evaluate next
Endpoint output: recombinant UMI read abundance (log10) of ACGGAGACATGGACCGGTTTTCCCGGTAATCCGTATTTGCA (site AGGAAGACTTG) . Value?
0

----------
procedureSummary: recombinant UMI read abundance after kanamycin selection (control-corrected) (log10(CPM+1)); higher = more efficient recombination; extreme values may be limits of the assay; sequences stand for … in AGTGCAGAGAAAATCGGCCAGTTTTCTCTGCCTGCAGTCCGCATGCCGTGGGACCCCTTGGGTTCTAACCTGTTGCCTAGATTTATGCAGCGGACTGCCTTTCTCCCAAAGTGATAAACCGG…AGGTTGGTTTCACT; site = the 11-nt donor
measurementLabel: recombinant UMI read abundance (log10)
// print number alone

Tell me the measured recombinant UMI read abundance (log10) of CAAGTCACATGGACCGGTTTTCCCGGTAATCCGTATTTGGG (site CAAATCACTCC) , please.
0.0224
